Source: paper PMC4788259

- Test system: E. multilocularis metacestodes
- method.notes: PGI assay: phosphoglucose isomerase release from damaged metacestodes
- Assay type: cell-based, Echinococcus multilocularis
- measurement.setup: 10 μM, 5 days, single wells, relative to DB1127 (10 μM)
Please mark Yes if the recorded PGI (% of DB1127 at 10 uM) is equal to or greater than -30%, and No if it falls below.

>>> class_assignment("CC(C)(C)CC(C)(C)NCC(O)COc1ccc(Cl)cc1Cl (stereo not shown)")
"Yes"
>>> class_assignment("Cc1ccc(OCCCCCCNCCO)c(C)c1")
"Yes"
>>> class_assignment("CCOC(=O)c1c(C)n(-c2ccc(Cl)cc2)c2ccc(OC(=O)C=Cc3ccccc3)cc12")
"No"
>>> class_assignment("CN(C)CCNc1cc(-c2ccccc2)nc2ccccc12")
"Yes"
>>> class_assignment("COc1ccc2c(c1)C1(Nc3ccccc3-c3nc4ccccc4n31)C(=O)N2 (stereo not shown)")
"Yes"
>>> class_assignment("CCOC(=O)C1(Cc2ccccc2)CCN(Cc2cccc(OC)c2O)CC1")
"Yes"
>>> class_assignment("COc1cccc(Nc2nc(N)c3ccccc3n2)c1.Cl")
"Yes"
>>> class_assignment("O=[N+]([O-])c1ccc(C=NNc2nc3ccccc3[nH]2)cc1")
"No"
>>> class_assignment("CN(C)c1ccc(N2C(N)=NC(N)=NC2(C)C)cc1")
"Yes"
>>> class_assignment("CCOc1ccc(CN2CCN(CC(O)COc3ccc(OCC(O)CN4CCN(Cc5ccc(OCC)cc5)CC4)cc3)CC2)cc1 (stereo not shown)")
"Yes"
>>> class_assignment("Cc1ccc2cc3c(N)c4c(C)ccc(C)c4nc3nc2c1")
"No"
>>> class_assignment("CN(N=O)C1=C(NC2CCCCC2)C(=O)c2ccccc2C1=O")
"Yes"
>>> class_assignment("Cc1cc(Nc2ccc3ccccc3c2)n2ncnc2n1")
"No"
>>> class_assignment("COc1cc(-c2nc(-c3ccccc3)c(-c3ccccc3)[nH]2)cc(OC)c1O")
"Yes"
>>> class_assignment("Cc1cc(C=C2SC(=Nc3ccccc3)N(C3CCCC3)C2=O)c(C)n1-c1ccc(Cl)cc1")
"No"
>>> class_assignment("CCOc1ccc2nc(C)cc(Nc3ccc(Br)cc3)c2c1")
"Yes"
>>> class_assignment("OC(CNCC1CCCO1)Cn1c2ccc(Cl)cc2c2cc(Cl)ccc21 (stereo not shown)")
"Yes"
>>> class_assignment("CCc1ccc(Nc2cc(C)c3ccc(O)cc3n2)cc1.Cl")
"Yes"
